# Test system: U2OS
# Assay Comment: Multiplex assay against U2OS
# Assay type: toxicity, cell-based
# Experimental Parameters: human, 24 h, 10 µM, compound concentration 10 uM, replicate 1
Non-standard residues stand in square brackets, D forms with d. Residues, ends and D or L forms follow the SMILES beside them.
Readout Name: Population Hoechst High Intensity Objects (%)

Below are 3 compounds. Give each one its Population Hoechst High Intensity Objects (%).
1. CN1CCN2c3ccccc3Cc3ccccc3C2C1.Cl (stereo not drawn) [MIANSERIN HYDROCHLORIDE]
2. CCc1nn2c(C)cc(C)nc2c1Cc1ccc(-c2nnc(C3CCNCC3)o2)cc1
3. Cc1cc(O)c(-c2ccc([C@@H](C)CN(C)C)cc2)c2c1[nH]c(=O)c1sccc12

Response line:
1. 1%
2. 3%
3. 9%

Below are 5 compounds. Give each one its Population Hoechst High Intensity Objects (%).
1. C[C@@H]1CC(=O)Nc2cccc(-c3ccc4c(c3)c(-c3cnn(C)c3)nn4C)c2N1
2. Cc1c(Cc2ccc3ccccc3n2)c2cc(F)ccc2n1CC(=O)O
3. Cc1cc(=O)n(C)c2cc(N3C(=O)CC[C@H](NS(=O)(=O)CC(C)C)[C@H]3c3ccc(Cl)cc3)ccc12
4. CN1CCN(c2ccc(Nc3c4ccccc4nc4ccccc34)cc2)CC1.Cl.Cl.O
5. CC(C)C[C@@H]1NC(=O)[C@@H](C(C)C)NC(=O)[C@@H]2CCCN2C(=O)[C@@H](CC(=O)O)NC(=O)[C@@H](Cc2c[nH]c3ccccc23)NC1=O [BQ-123] (cyclo(L[dW][dD]P[dV]))

Response line:
4%
1%
5%
4%
2%
